Experimental Context: in water, 323.15 K

{"Compound": "O=C(O)CC(O)C(=O)O (stereo unspecified)", "solubility (mole fraction)": 0.229}

----------
Experimental Context: in water, 298.15 K

{"Molecule": "O=C(O)CC(O)C(=O)O (stereo unspecified)", "solubility (mole fraction)": 0.15}

----------
Experimental Context: in ethanol, 328.15 K
Property: solubility (mole fraction)

{"Molecule": "O=C(O)CC(O)C(=O)O (stereo unspecified)", "Readout Value": 0.207}

----------
Experimental Context: in ethanol, 318.15 K
Property: solubility (mole fraction)

{"Compound": "O=C(O)CC(O)C(=O)O (stereo unspecified)", "Property": "solubility (mole fraction)", "Readout Value": 0.165}

----------
Experimental Context: in ethanol, 323.15 K

{"Molecule": "O=C(O)CC(O)C(=O)O (stereo unspecified)", "solubility (mole fraction)": 0.184}

----------
Experimental Context: in ethanol, 298.15 K

{"Molecule": "O=C(O)CC(O)C(=O)O (stereo unspecified)", "solubility (mole fraction)": 0.109}

----------
Experimental Context: in water, 328.15 K
Property: solubility (mole fraction)

{"Molecule": "O=C(O)CC(O)C(=O)O (stereo unspecified)", "Readout Value": 0.249}

----------
Experimental Context: in water, 303.15 K

{"Compound": "O=C(O)CC(O)C(=O)O (stereo unspecified)", "solubility (mole fraction)": 0.161}

----------
Experimental Context: in ethanol, 333.15 K
Property: solubility (mole fraction)

{"Compound": "O=C(O)CC(O)C(=O)O (stereo unspecified)", "Property": "solubility (mole fraction)", "Readout Value": 0.227}

----------
Experimental Context: in water, 308.15 K

{"Molecule": "O=C(O)CC(O)C(=O)O (stereo unspecified)", "solubility (mole fraction)": 0.178}

These entries and their values trace back to BigSolDB 2.1.
